Values from ChEMBL document CHEMBL3045592

Readings of log10 of IC50 for the listed compounds
Tested on: Cucumis sativus
Experiment: Herbicidal activity against Cucumis sativus Jin 4 (cucumber) assessed as inhibition of root growth after 3 days
Type: functional, organism-based
Conditions: Jin 4, 72 h
reported_property: log10 of IC50 (log10 of the value in nM)

| compound | log10 of IC50 |
| --- | --- |
| CCCC(OC(=O)C(C)Oc1ccc(Cl)cc1Cl)P(=O)(OC)OC (configuration not stated) | 3.47 |
| COP(=O)(COC(=O)COc1ccc(Cl)cc1Cl)OC | 1.76 |
| CCOP(=O)(OCC)C(OC(=O)COc1ccc(Cl)cc1Cl)c1ccccc1 (configuration not stated) | 1.69 |
| CCOP(=O)(OCC)C(C)OC(=O)C(C)Oc1ccc(Cl)cc1Cl (configuration not stated) | 3.03 |
| CCOP(=O)(OCC)C(C)OC(=O)COc1ccc(Cl)cc1Cl (configuration not stated) | 2.48 |
| CCCC(OC(=O)COc1ccc(Cl)cc1Cl)P(=O)(OC)OC (configuration not stated) | 0.88 |
| CCC(OC(=O)COc1ccc(Cl)cc1Cl)P(=O)(OC)OC (configuration not stated) | 2.51 |
| COP(=O)(OC)C(OC(=O)COc1ccc(Cl)cc1Cl)c1cccc([N+](=O)[O-])c1 (configuration not stated) | 0.53 |
| CCCOP(=O)(OCCC)C(OC(=O)C(C)Oc1ccc(Cl)cc1Cl)c1ccccc1 (configuration not stated) | 3.66 |
| CCCOP(=O)(OCCC)C(C)OC(=O)C(C)Oc1ccc(Cl)cc1Cl (configuration not stated) | 3.39 |
| COP(=O)(OC)C(C)OC(=O)C(C)Oc1ccc(Cl)cc1Cl (configuration not stated) | 3.15 |
| CCOP(=O)(OCC)C(OC(=O)COc1ccc(Cl)cc1Cl)c1ccccc1Cl (configuration not stated) | 3.17 |
| COP(=O)(OC)C(C)OC(=O)COc1ccc(Cl)cc1Cl (configuration not stated) | 0.40 |
| CCCOP(=O)(OCCC)C(OC(=O)C(C)Oc1ccc(Cl)cc1Cl)c1ccccc1Cl (configuration not stated) | 4.08 |
| O=C(O)COc1ccc(Cl)cc1Cl | 2.36 |
| CCOP(=O)(OCC)C(CC)OC(=O)COc1ccc(Cl)cc1Cl (configuration not stated) | 2.49 |
| COP(=O)(OC)C(OC(=O)COc1ccc(Cl)cc1Cl)c1ccccc1 (configuration not stated) | 1.15 |
